- test_summary: physchem
- measurement_conditions: 37 °C, organic solvent or mixture, thermodynamic from solid, Solubility
measure: solubility at 72 h (mg/mL)
Kindly provide the numeric value in mg/mL only, without the unit symbol.

Fill in solubility at 72 h for record C#C[C@]1(CO)O[C@@H](n2cnc3c(N)nc(F)nc32)C[C@@H]1O [EFdA] 34.9

###

- test_summary: Solubility of active agents in excipients (saturated solutions, UPLC/UV)
- measurement_conditions: 37 °C, oil or lipid, thermodynamic from solid
Where a name gives a salt, the structure may show the parent alone.
measure: solubility at 72 h (µg/mL)
Kindly provide the numeric value in µg/mL only, without the unit symbol.

Fill in solubility at 72 h for record CC(C)OC(=O)[C@H](C)N[P@](=O)(CO[C@H](C)Cn1cnc2c(N)ncnc21)Oc1ccccc1 [TAF, Tenofovir Alafenamide Fumarate] 3900
